# system.name: hA1 AR (Homo sapiens)
# Construct: host or cells: CHO-A1 (CHO cells expressing hA1 AR)
# Sequence (P30542 1-326): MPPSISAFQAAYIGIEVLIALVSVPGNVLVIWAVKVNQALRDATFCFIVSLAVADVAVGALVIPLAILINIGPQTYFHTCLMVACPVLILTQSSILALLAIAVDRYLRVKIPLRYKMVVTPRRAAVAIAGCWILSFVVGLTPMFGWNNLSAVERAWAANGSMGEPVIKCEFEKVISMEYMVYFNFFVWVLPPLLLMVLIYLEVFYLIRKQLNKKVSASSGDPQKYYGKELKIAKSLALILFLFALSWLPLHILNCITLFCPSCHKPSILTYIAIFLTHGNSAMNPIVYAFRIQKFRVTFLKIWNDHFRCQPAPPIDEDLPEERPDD
# experimental.protocol: Radioligand competition binding assay at hA1 AR
# conditions: 10 μM compound; [3H]DPCPX; CHO cells; 10 µM
value.kind: Percentage Inhibition (%) at 10 μM, hA1 AR
// return numeric value only (unit: %, not printed)

Worked set:
molecule | system.name | output.unit | val
COc1ccc(-c2nc(N)nc(Nc3ccc(OC)c(F)c3)n2)cc1 [Compound 11a] | hA1 AR (Homo sapiens) | % | 95
Cc1ccc(Nc2nc(N)nc(-c3ccc(O)cc3)n2)c(C)c1 | hA1 AR (Homo sapiens) | % | 99
COc1cc(Nc2nc(N)nc(-c3ccc(O)cc3)n2)ccc1Cl | hA1 AR (Homo sapiens) | % | 99
Cc1cc(C)cc(Nc2nc(N)nc(-c3ccc(O)cc3)n2)c1 | hA1 AR (Homo sapiens) | % | 96

Turning to the following molecule.
Reported Percentage Inhibition (%) at 10 μM, hA1 AR for COc1ccc(Nc2nc(N)nc(-c3ccc(F)cc3)n2)cc1F [Compound 11b] : what is it?
98
